Test system: Escherichia coli TOP10;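 further: peptides expressed intracellularly from a pBAD plasmid library in pooled LB shake-flask culture, induced with 0.3% L-arabinose, DNA abundance read by NGS, three biological replicates, DESeq2 with apeglm shrinkage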
Measurement notes: shrunken log2 fold change of peptide-encoding DNA abundance (4.5 h post-induction vs induction); higher = less antimicrobial activity (less host growth inhibition)
Assay context: time post-induction: 4.5 h; library: site-saturation at positions 5, 18, 19, 20
Below, each entry is listed alongside its reported shrunken log2 fold change.

Use these answered entries as a reference point.
{"Macromolecule sequence": "RRIRCRPPRLPRPRPRPDSDPRP", "shrunken log2 fold change": -0.0612}
{"Macromolecule sequence": "RRIRHRPPRLPRPRPRPAMIPRP", "shrunken log2 fold change": -0.0435}
{"Macromolecule sequence": "RRIRMRPPRLPRPRPRPTLKPRP", "shrunken log2 fold change": 0.501}
{"Macromolecule sequence": "RRIRKRPPRLPRPRPRPVHSPRP", "shrunken log2 fold change": 0.034}
{"Macromolecule sequence": "RRIRFRPPRLPRPRPRPDMKPRP", "shrunken log2 fold change": -0.25}

Looking up RRIRIRPPRLPRPRPRPFYCPRP , I see its shrunken log2 fold change listed as -0.633

Looking up RRIRYRPPRLPRPRPRPRNQPRP , I see its shrunken log2 fold change listed as -0.32

Looking up RRIRPRPPRLPRPRPRPWTEPRP , I see its shrunken log2 fold change listed as -0.204
